experiment: chemical genetic growth profiling, strain panel (AID 1159580);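 note: tested at 20 µM; growth read once vehicle control cultures reached saturation at 30 °C; 1 = growth at the plate median or of vehicle wells; lower values mean less growth of the strain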; settings: S. cerevisiae deletion strains, growth OD, locus YLR268W, strain sec22
Hit rate of the full screen: of about 5,500 compounds, about 2,000 (36%) were called active. Roughly 18% stayed inconclusive and do not appear here. Cut-off read from the data, not from the text of the source: active = normalized growth mostly below about 0.91 (no sharp cut-off); inconclusive = no clear call, values can overlap the other calls; inactive = mostly above about 0.92. Some of the results follow.
Classes used: 1 for active, -1 for inactive

molecule: CC[C@@]1(O)C(=O)OCc2c1cc1n(c2=O)Cc2cc3cc(O)ccc3nc2-1
category_label: -1

molecule: NC(=O)c1ccc([N+](=O)[O-])cc1Cl
category_label: -1

molecule: NCCCCN
category_label: -1

molecule: CC1=CC(=O)C2C(C)(C)CCC[C@]2(C)[C@@]1(O)CCc1ccoc1 (stereo partly specified)
category_label: -1

molecule: NC[C@H]1O[C@H](OC2[C@@H](N)C[C@@H](N)[C@H](O[C@H]3O[C@H](CO)[C@@H](O)[C@H](N)[C@H]3O)[C@H]2O)[C@H](O)[C@@H](O)[C@@H]1O (stereo partly specified)
category_label: -1

molecule: CC(=O)N1CCCC1C(=O)O (stereo unspecified)
category_label: -1

molecule: O=c1c(O)cc([C@H]2Oc3cc(O)cc(O)c3C[C@H]2O)cc2c([C@H]3Oc4cc(O)cc(O)c4C[C@H]3O)cc(O)c(O)c12
category_label: -1

molecule: CCOC(=O)CC(SP(=S)(OC)OC)C(=O)OCC (stereo unspecified)
category_label: -1

molecule: NC(=O)c1cc([N+](=O)[O-])cc([N+](=O)[O-])c1
category_label: -1

molecule: Cc1c(OCC(F)(F)F)ccnc1CS(=O)c1nc2ccccc2[nH]1 (stereo unspecified)
category_label: 1

molecule: Cc1c(C(N)=O)cc([N+](=O)[O-])cc1[N+](=O)[O-]
category_label: -1

* * *

assay: chemical genetic growth profiling, strain panel (AID 1159580); conditions: S. cerevisiae deletion strains, growth OD, locus YDL035C, strain GPR1, hits give low values
In all, about 5,500 compounds went through this assay and about 2,000 (36%) were called active. About 18% were inconclusive and are not listed. The list shows a part of the results.
Reported normalized growth values for the following compounds.

compound: CC1=CC(=O)C2C(C)(C)CCC[C@]2(C)[C@@]1(O)CCc1ccoc1 (stereo partly drawn)
normalized growth: 1.03

compound: CSCCC(N)C(=O)NC(CC(C)C)C(=O)NC(Cc1ccccc1)C(=O)O (stereo not drawn)
normalized growth: 1.02

compound: NC[C@@H]1O[C@H](O[C@@H]2[C@@H](CO)OC(O[C@@H]3[C@@H](O)[C@H](N)C[C@H](N)[C@H]3O[C@H]3O[C@H](CO)[C@@H](O)[C@H](O)[C@H]3N)[C@@H]2O)[C@H](N)[C@@H](O)[C@@H]1O (stereo partly drawn)
normalized growth: 0.996

compound: C[N+]1(C)C[C@H](O)[C@H](C(=O)[O-])C1
normalized growth: 1.01

compound: CO[C@@H]1C[C@H](O[C@H]2CC[C@]3(C)C4CC[C@]5(C)[C@@H](C6=CC(=O)OC6)CC[C@]5(O)[C@@H]4CC[C@]3(O)C2)O[C@H](C)[C@@H]1O (stereo partly drawn)
normalized growth: 0.905

compound: CCCCCC(O)C1C(=O)OC(C)C(O)/C=C/C=C/C=C/C=C/C=C(\C)C(O)CC(O)CC(O)CC(O)CC(O)CC(O)CC1O (stereo not drawn)
normalized growth: 1.02

compound: CC1(C)[C@@H]2CC[C@@]1(C)C(=O)C2
normalized growth: 1.01

compound: CC(=O)N1CCN(c2ccc(OCC3CO[C@](Cn4ccnc4)(c4ccc(Cl)cc4Cl)O3)cc2)CC1 (stereo partly drawn)
normalized growth: 0.0672

* * *

assay: chemical genetic growth profiling, strain panel (AID 1159580); settings: S. cerevisiae deletion strains, growth OD, locus YGR252W, strain gcn5, hits give low values
About 2,000 (36%) of roughly 5,500 compounds were called active. About 18% were inconclusive and are not listed. Some of the results follow.

molecule: CC1(C)S[C@@H]2[C@H](NC(=O)[C@@H](N)c3ccc(O)cc3)C(=O)N2[C@H]1C(=O)O
normalized growth: 0.954

molecule: CC1(C)O[C@@H]2CC3C4C[C@H](F)C5=CC(=O)CC[C@]5(C)C4[C@@H](O)C[C@]3(C)[C@]2(C(=O)CO)O1 (stereo partly drawn)
normalized growth: 0.983

molecule: C[C@]12CCC3C(CC[C@]4(O)C[C@@H](O)CC[C@]34C=O)[C@@]1(O)CCC2C1=CC(=O)OC1 (stereo partly drawn)
normalized growth: 0.988

molecule: NCC(O)CC(=O)O (stereo not drawn)
normalized growth: 0.982

molecule: COC1C(O)C(O[C@H]2CC[C@]3(C=O)C4C(CC[C@]3(O)C2)[C@@]2(O)CC[C@H](C3=CC(=O)OC3)[C@@]2(C)C[C@H]4OC(C)=O)OC(C)C1OC(C)=O (stereo partly drawn)
normalized growth: 1.22

molecule: CC12CCC3C(CCC4(O)CC(O)CCC34/C=N/NC(N)=O)C1(O)CCC2C1=CC(=O)OC1 (stereo not drawn)
normalized growth: 0.98

molecule: C[C@H]1O[C@@H](O[C@H]2[C@@H](O)C[C@H](O[C@H]3[C@@H](O)C[C@H](O[C@H]4CC[C@]5(C)C6C[C@@H](O)[C@]7(C)[C@@H](C8=CC(=O)OC8)CC[C@]7(O)C6CC[C@@H]5C4)O[C@@H]3C)O[C@@H]2C)C[C@H](O)[C@@H]1O (stereo partly drawn)
normalized growth: 1.09

molecule: CC(=O)[C@@]1(O)CCC2C3C=C(Cl)C4=CC(=O)[C@@H]5CC5[C@]4(C)C3CC[C@@]21C (stereo partly drawn)
normalized growth: 0.952

* * *

assay: chemical genetic growth profiling, strain panel (AID 1159580);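 note: tested at 20 µM; growth read once vehicle control cultures reached saturation at 30 °C; 1 = growth at the plate median or of vehicle wells; lower values mean less growth of the strain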; details: S. cerevisiae deletion strains, growth OD, locus YKR026C, strain gcn3, hits give low values
The campaign covered roughly 5,500 compounds. About 2,000 (36%) were called active. About 18% were inconclusive and are not listed. The list shows a part of the results.
quantity_measured: normalized growth

compound: COC(=O)C[C@H]1C(C)(C)[C@@H](O)[C@@H]2CC3=C4CC(O)O[C@@H](c5ccoc5)[C@]4(C)CCC3[C@@]1(C)C2=O (some centres undefined)
val: 1.02
--
compound: O=S(=O)(O)O
val: 0.975
--
compound: O=C1CC2(CCCC2)CC(=O)N1CCCCN1CCN(c2ncccn2)CC1
val: 1.01
--
compound: CC12CCC(=O)C=C1CCc1ccccc12 (centres undefined)
val: 0.951
--
compound: CC1=CC(=O)C(C(C)C)=CC1=O
val: 0.903
--
compound: CO[C@H]1[C@@H](O)[C@@H](C)O[C@H](O[C@H]2CCC3(C)C4CCC5(C)[C@@H](C6=CC(=O)OC6)CC[C@]5(O)[C@@H]4CC[C@]3(O)C2)[C@@H]1O (some centres undefined)
val: 1.02
--
compound: C/C=C(\C)C(=O)O[C@@H]1c2c(ccc3ccc(=O)oc23)OC(C)(C)[C@@H]1OC(C)=O
val: 0.996
--
compound: CC[C@@]1(O)C(=O)OCc2c1cc1n(c2=O)Cc2cc3cc(O)ccc3nc2-1
val: 0.997
--
compound: OC1(c2ccc(Cl)c(C(F)(F)F)c2)CCN(CCCC(c2ccc(F)cc2)c2ccc(F)cc2)CC1
val: 0.132

* * *

assay: chemical genetic growth profiling, strain panel (AID 1159580);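 note: tested at 20 µM; growth read once vehicle control cultures reached saturation at 30 °C; 1 = growth at the plate median or of vehicle wells; lower values mean less growth of the strain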; conditions: S. cerevisiae deletion strains, growth OD, locus YMR307W, strain GAS1, hits give low values
In all, about 5,500 compounds went through this assay and about 2,000 (36%) were called active. Another 18% or so got no clear call; they are omitted. This is one part of the list.
Collected normalized growth values appear next to each entry.
quantity_measured: normalized growth

compound: O=C(NCCNCC(O)COc1ccc(O)cc1)N1CCOCC1 (stereo not given)
quantity_measured: normalized growth
val: 0.997 (inactive)
//
compound: CNC[C@H](O)c1cccc(O)c1
quantity_measured: normalized growth
val: 1.02 (inactive)
//
compound: CC1(C)S[C@@H]2[C@H](NC(=O)[C@@H](N)c3ccc(O)cc3)C(=O)N2[C@H]1C(=O)O
quantity_measured: normalized growth
val: 0.969 (inactive)
//
compound: COc1ccc(-c2cc(=O)c3c(O)c(OC)c(O[C@H]4O[C@H](CO[C@@H]5O[C@@H](C)[C@H](O)[C@@H](O)[C@H]5O)[C@@H](O)[C@H](O)[C@H]4O)cc3o2)cc1
quantity_measured: normalized growth
val: 1.08 (inactive)
//
compound: COc1cc(O)c2c(=O)cc(-c3ccc(O)cc3)oc2c1
quantity_measured: normalized growth
val: 0.907 (inactive)

* * *

assay: chemical genetic growth profiling, strain panel (AID 1159580);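 note: tested at 20 µM; growth read once vehicle control cultures reached saturation at 30 °C; 1 = growth at the plate median or of vehicle wells; lower values mean less growth of the strain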; settings: S. cerevisiae deletion strains, growth OD, locus YML032C, strain rad52
Screen size: about 5,500 compounds; about 2,000 (36%) were called active. Roughly 18% stayed inconclusive and do not appear here. Rule as the data show it: active = normalized growth mostly below about 0.91 (no sharp cut-off); inconclusive = no clear call, values can overlap the other calls; inactive = mostly above about 0.92. The list shows a part of the results.
Possible outcomes: yes (1) (active), no (0) (inactive)

molecule: C[N+]1(C)C[C@H](O)[C@H](C(=O)[O-])C1
category_label: no (0)
--
molecule: CC(=O)N1CCCC1C(=O)O (configuration not stated)
category_label: no (0)
--
molecule: CCOC(=O)CC(SP(=S)(OC)OC)C(=O)OCC (configuration not stated)
category_label: no (0)
--
molecule: N#Cc1c(Cl)cccc1Cl
category_label: no (0)
--
molecule: CC1(C)S[C@@H]2C(N3C(=O)[C@@H](c4ccccc4)NC3(C)C)C(=O)N2[C@H]1C(=O)O (some centres not stated)
category_label: no (0)
--
molecule: COc1cccc2c1CCC1=CC(=O)CC[C@@]12C
category_label: no (0)
--
molecule: CC1=CC(=O)C2C(C)(C)CCC[C@]2(C)[C@@]1(O)CCc1ccoc1 (some centres not stated)
category_label: no (0)
--
molecule: COc1ccc(-c2cc(=O)c3c(O)cc(O)cc3o2)cc1O
category_label: no (0)
--
molecule: CC1Cc2ccccc2N1NC(=O)c1ccc(Cl)c(S(N)(=O)=O)c1 (configuration not stated)
category_label: no (0)
--
molecule: CO[C@@H]1C[C@H](O[C@H]2CC[C@]3(C)C4CC[C@]5(C)[C@@H](C6=CC(=O)OC6)CC[C@]5(O)[C@@H]4CC[C@]3(O)C2)O[C@H](C)[C@@H]1O (some centres not stated)
category_label: no (0)
--
molecule: C[C@]12CCC(=O)C=C1CCc1ccc(O)cc12
category_label: no (0)
--
molecule: COc1cc(C)c2c(=O)c3c(O)cc(O)cc3oc2c1
category_label: yes (1)
--
molecule: COc1cc(C(=O)O)cc(OC)c1OC
category_label: no (0)
--
molecule: COC1C(O)C(O[C@H]2CC[C@]3(C=O)C4C(CC[C@]3(O)C2)[C@@]2(O)CC[C@H](C3=CC(=O)OC3)[C@@]2(C)C[C@H]4OC(C)=O)OC(C)C1OC(C)=O (some centres not stated)
category_label: no (0)
--
molecule: CC1(C)S[C@@H]2[C@H](NC(=O)[C@@H](N)c3ccc(O)cc3)C(=O)N2[C@H]1C(=O)O
category_label: no (0)
--
molecule: COc1cc(O)c2c(=O)cc(-c3ccc(OC)c(-c4c(O)cc(O)c5c(=O)cc(-c6ccc(O)cc6)oc45)c3)oc2c1
category_label: no (0)
--
molecule: CCc1ccc2c(O)c3c(cc2c1C(=O)OC)C(=O)c1c(O)ccc(O)c1C3=O
category_label: no (0)
--
molecule: C[C@H]1O[C@@H](O[C@H]2[C@@H](O)C[C@H](O[C@H]3[C@@H](O)C[C@H](O[C@H]4CC[C@]5(C)C6CC[C@]7(C)[C@@H](C8=CC(=O)OC8)CC[C@]7(O)C6CC[C@@H]5C4)O[C@@H]3C)O[C@@H]2C)C[C@H](O)[C@@H]1O (some centres not stated)
category_label: no (0)
--
molecule: NCC(O)CC(=O)O (configuration not stated)
category_label: no (0)
--
molecule: Cc1ccccc1N1C(=O)c2cc(S(N)(=O)=O)c(Cl)cc2NC1C (configuration not stated)
category_label: no (0)
--
molecule: CC1(C)[C@@H]2CC[C@@]1(C)C(=O)C2
category_label: no (0)
--
molecule: Cc1ccc(C(C)C)c(O)c1C(=O)O
category_label: no (0)
--
molecule: CC(=O)Oc1ccccc1C(=O)Oc1ccccc1C(=O)O
category_label: no (0)
--
molecule: C[C@]12CCC3C(CC[C@]4(O)C[C@@H](O)CC[C@]34C=O)[C@@]1(O)CCC2C1=CC(=O)OC1 (some centres not stated)
category_label: no (0)
--
molecule: C[C@]12CC[C@H](O)C[C@H]1CCC1C2CC[C@]2(C)[C@@H](C3=CC(=O)OC3)[C@@H](O)C[C@]12O (some centres not stated)
category_label: no (0)
--
molecule: O=C(CCCN1CCC(O)(c2ccc(Cl)cc2)CC1)c1ccc(F)cc1
category_label: yes (1)
--
molecule: COc1ccc(-c2cc(=O)c3c(O)cc(O)c(-c4cc(-c5cc(=O)c6c(O)cc(O)cc6o5)ccc4OC)c3o2)cc1
category_label: no (0)
--
molecule: CC(=O)N1CCN(c2ccc(OCC3CO[C@](Cn4ccnc4)(c4ccc(Cl)cc4Cl)O3)cc2)CC1 (some centres not stated)
category_label: yes (1)
--
molecule: O=c1c(O)cc([C@H]2Oc3cc(O)cc(O)c3C[C@H]2O)cc2c([C@H]3Oc4cc(O)cc(O)c4C[C@H]3O)cc(O)c(O)c12
category_label: no (0)
--
molecule: CC12CCC3C(CCC4(O)CC(O)CCC34/C=N/NC(N)=O)C1(O)CCC2C1=CC(=O)OC1 (configuration not stated)
category_label: no (0)
--
molecule: CC1=C2C(O)C(=O)OC3CC4C(C)(C)C(=O)C=C[C@]4(C)C(CC1)[C@]23C (some centres not stated)
category_label: no (0)
--
molecule: CCC(=O)OCC(=O)C1(OC(=O)CC)C(C)CC2C3CCC4=CC(=O)C=CC4(C)C3(Cl)C(O)CC21C (configuration not stated)
category_label: no (0)
--
molecule: COc1ccc(-c2cc(=O)c3c(O)cc(O)cc3o2)cc1
category_label: no (0)
--
molecule: COc1nc(NC(C)C)nc(NC(C)C)n1
category_label: no (0)
--
molecule: C[C@@H]1O[C@@H](O[C@H]2CC[C@]3(C=O)C4CC[C@]5(C)[C@@H](C6=CC(=O)OC6)CC[C@]5(O)C4CC[C@]3(O)C2)[C@H](O)[C@H](O)[C@H]1O (some centres not stated)
category_label: no (0)
--
molecule: COc1cc(O)c2c(=O)cc(-c3ccc(O)cc3)oc2c1
category_label: no (0)
--
molecule: CO[C@H]1[C@H](O)[C@@H](O[C@H]2CC[C@]3(C=O)C4CC[C@]5(C)[C@@H](C6=CC(=O)OC6)CC[C@]5(O)C4CC[C@@H]3C2)O[C@@H](C)[C@@H]1O (some centres not stated)
category_label: no (0)
